These measurements were taken from ChEMBL document CHEMBL1201862.

Test system: LOX IMVI
protocol notes: NCI tumour cell line growth inhibition, 48 h
Calls of active or inactive are those of the source. No stated cut-off is given here; in the data, active = GI50 up to about 1.1 µM and inactive = higher.
Documented GI50 across a set of compounds

Some compounds with known GI50 results, for comparison:
compound | GI50
C[N+](C)([O-])Cc1cc(-c2ccccc2)ccc1O | > 100 µM (inactive)
CCCCC(N)CSSCC(N)CCCC (stereo not drawn) | 17.6 µM (inactive)

Give GI50 for the following compound: CNC(=O)N(C)C(=O)c1ccccc1C(=O)N(C)C(=O)NC
> 10 µM (inactive)

###

Parameter GI50, tested on HCT-15, listed per item.

Use the examples below as a reference point.
compound | GI50
O=C1C[C@H](c2ccccc2)O[C@@H](c2ccccc2)C1 | > 100 µM
O=C(CCCn1ccnc1[N+](=O)[O-])NCCn1cnc([N+](=O)[O-])c1 | > 100 µM
C/C(=C\c1ccc2c(c1)OCO2)[N+](=O)[O-] | 1.96 µM

Below: the item to evaluate.
Assign GI50 to the following record: Cc1cc2ncn(C3CCCCO3)c2cc1C (centres undefined)
> 100 µM

###

System: HOP-62
protocol notes: NCI tumour cell line growth inhibition, 48 h
The source made the active and inactive calls. Rule as the data show it: active = GI50 up to about 1.1 µM and inactive = higher.
measured metric: GI50

Look over these answered cases.
compound | GI50
COc1cc2c(c3oc4c(O)cccc4c(=O)c13)CC(C(C)(O)CO)O2 (stereo unspecified) | > 100 µM (inactive)
CC[C@@]1(O)C(=O)OCc2c1cc1n(c2=O)Cc2cc3cc4c(cc3nc2-1)OCO4 | < 0.001 µM (active)
Cc1ccc2nc(NC(=O)/C(=N\NC(=S)NN)C3C(=O)NC(=S)NC3=O)sc2c1 | > 100 µM (inactive)
CN(CCC(=O)O)S(=O)(=O)c1ccccc1 | > 100 µM (inactive)
C=C1C(=O)O[C@@H]2[C@H]3O[C@]3(C)CCC=C(C)CC[C@@H]12 | 49.1 µM (inactive)

Next up:
Give GI50 for Cc1nc2c(n1-c1ccc(Br)cc1)C(=O)c1ccccc1C2=O
18.3 µM (inactive)

###

System: Malme-3M
protocol notes: NCI tumour cell line growth inhibition, 48 h
Active and inactive are the calls of the source. Rule as the data show it: active = GI50 up to about 1.1 µM and inactive = higher.
Measured GI50 values are reported for all entries that follow.

Previously resolved entries follow.
compound | observed result
COc1cc2nc(-c3cccs3)nc(N3C(c4ccc(O)cc4)=NNC(=O)c4ccccc43)c2cc1OC | 21.1 µM (inactive)
S=C(Nc1ccc(Br)cn1)NC12CC3CC(CC(C3)C1)C2 | 21.7 µM (inactive)
OC1CC(O)c2c(Cl)sc(Cl)c21 (centres undefined) | 36.3 µM (inactive)
Cc1ccc2nc(NC(=O)/C(=N\NC(=S)NN)C3C(=O)NC(=S)NC3=O)sc2c1 | > 100 µM (inactive)
c1nc2cscc2c2cscc12 | > 100 µM (inactive)

Return value of GI50 for input CC1CNC(NS(=O)(=O)c2cc(C(=O)Nc3ccc(Cl)cc3)c(Cl)cc2S)=NN1 (centres undefined) , no commentary.
17.9 µM (inactive)

Return value of GI50 for input CN(C)c1ccc(/C=C/c2ccc(S(N)(=O)=O)cc2)cc1 , no commentary.
14 µM (inactive)

Indicate the recorded GI50 value for this compound: C=COCCCOc1ccccc1
> 100 µM (inactive)

Annotate the compound CNC1=C(C)C(=O)C(C)=C(C(C)(C)CC(=O)n2cc(F)c(=O)[nH]c2=O)C1=O with its measured GI50.
> 43.1 µM (inactive)

Give GI50 for CCOC(=O)/C=C(/OCC)[C@@H]1C(C(=O)c2ccc(Cl)cc2)[C@@H]1/C(=C\C(=O)OCC)OCC (some centres undefined)
16.8 µM (inactive)
